Listed here are compounds together with their documented TGI.
# Test system: A549 NSCLC
# method: NCI tumour cell line growth inhibition, 48 h
Please reply with the bare figure in µM and do not write the unit itself.

# sample-smiles, TGI (µM)
rows = [
    ("O=C1c2cccc3cc4ccccc4c(c23)C(=O)N1CCNCCN1C(=O)c2cccc3cc4ccccc4c(c23)C1=O", 0.982),
    ("[O-][n+]1c(-c2ccccc2)oc2ccccc21", 17.9),
]

May I ask what TGI has been recorded for "CN(c1ccc(C(=O)O)cc1)c1cc(O/N=[N+](\[O-])N(C)C)c([N+](=O)[O-])cc1[N+](=O)[O-]" ?
63.7
